Measured values drawn from patent US8513433B2 for this set.

Below are compounds with their IC50 as measured on human PARP-1 (Homo sapiens, UniProt P09874).
Sequence (P09874 whole entry): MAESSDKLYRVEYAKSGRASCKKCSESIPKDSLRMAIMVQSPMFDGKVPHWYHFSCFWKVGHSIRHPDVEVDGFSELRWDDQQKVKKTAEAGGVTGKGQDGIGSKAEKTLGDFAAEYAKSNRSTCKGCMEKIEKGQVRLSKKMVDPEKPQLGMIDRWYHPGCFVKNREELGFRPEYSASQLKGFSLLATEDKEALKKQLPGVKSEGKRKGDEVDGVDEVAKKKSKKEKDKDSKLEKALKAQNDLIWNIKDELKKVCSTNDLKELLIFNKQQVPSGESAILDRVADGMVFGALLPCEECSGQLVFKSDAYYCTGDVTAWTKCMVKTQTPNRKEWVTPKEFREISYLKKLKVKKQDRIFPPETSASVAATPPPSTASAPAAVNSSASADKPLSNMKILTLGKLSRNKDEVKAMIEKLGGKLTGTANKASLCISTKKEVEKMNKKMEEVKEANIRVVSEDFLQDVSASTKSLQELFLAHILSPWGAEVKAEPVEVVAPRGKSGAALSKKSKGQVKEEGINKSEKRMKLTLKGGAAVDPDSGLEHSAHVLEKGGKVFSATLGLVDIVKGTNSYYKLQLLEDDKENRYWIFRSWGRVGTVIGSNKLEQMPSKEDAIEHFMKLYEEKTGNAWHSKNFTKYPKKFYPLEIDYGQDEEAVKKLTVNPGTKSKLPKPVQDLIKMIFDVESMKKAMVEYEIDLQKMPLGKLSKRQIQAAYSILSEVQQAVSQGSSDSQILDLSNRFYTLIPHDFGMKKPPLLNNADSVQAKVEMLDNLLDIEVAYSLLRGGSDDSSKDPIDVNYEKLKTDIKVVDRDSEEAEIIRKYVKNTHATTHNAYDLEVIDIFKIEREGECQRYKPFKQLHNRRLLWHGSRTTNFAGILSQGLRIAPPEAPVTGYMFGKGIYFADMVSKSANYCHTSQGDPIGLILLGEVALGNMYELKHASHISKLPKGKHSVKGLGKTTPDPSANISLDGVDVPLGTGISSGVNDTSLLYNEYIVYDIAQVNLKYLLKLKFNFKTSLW

- compound: "NC(=O)c1cccc2[nH]c(C3NCCc4ccccc43)nc12 (stereo not drawn)"
  target or test system: "human PARP-1 (Homo sapiens, UniProt P09874)"
  result: "< 500 nM"
- compound: "CC(C)(C)OC(=O)Nc1ccc2c(c1)CN(C(=O)OC(C)(C)C)C(c1nc3c(C(N)=O)cccc3[nH]1)C2 (stereo not drawn)"
  target or test system: "human PARP-1 (Homo sapiens, UniProt P09874)"
  result: "> 2000 nM"

stdin: Need IC50, item CC(C)(C)OC(=O)Nc1ccc2c(c1)CNC(c1nc3c(C(N)=O)cccc3[nH]1)C2 (stereo not drawn)
stdout: > 2000 nM

stdin: Need IC50, item NC(=O)c1cccc2[nH]c(C3c4ccccc4CN3C(=O)OCc3ccccc3)nc12 (stereo not drawn)
stdout: > 2000 nM

stdin: Need IC50, item NC(=O)c1cccc2[nH]c(C3Cc4ccccc4N3)nc12 (stereo not drawn)
stdout: < 500 nM

stdin: Need IC50, item NC(=O)c1cccc2[nH]c(C3Cc4ccccc4CN3C(=O)OCc3ccccc3)nc12 (stereo not drawn)
stdout: 500 to 2000 nM

stdin: Need IC50, item NC(=O)c1cccc2[nH]c(C3CCc4ccccc4N3)nc12 (stereo not drawn)
stdout: < 500 nM

stdin: Need IC50, item CC(C)(C)OC(=O)N1c2ccccc2CCC1c1nc2c(C(N)=O)cccc2[nH]1 (stereo not drawn)
stdout: > 2000 nM

stdin: Need IC50, item CC1(c2nc3c(C(N)=O)cccc3[nH]2)Cc2ccccc2CN1 (stereo not drawn)
stdout: < 500 nM
